Where do these numbers come from? They come from PubChem BioAssay (NCI).

system: SW-620 colon; assay: NCI tumour cell line growth inhibition, 48 h
I'd appreciate it if you could supply TGI values for the items below.

// below: answered molecules
[[record]]
molecule = "CN(C)c1ccc(C2CC(C)(O)Oc3cc4c(cc32)OCO4)cc1 (stereo not given)"
observedvalue = "> 100 µM"

[[record]]
molecule = "CN(C)c1ccc(O[Si](Oc2ccc(N(C)C)cc2)(Oc2ccc(N(C)C)cc2)Oc2ccc(N(C)C)cc2)cc1"
observedvalue = "> 100 µM"

[[record]]
molecule = "Cc1cc(C)nc(NS(=O)(=O)c2ccc(Nc3c4ccccc4nc4ccc(C(=O)Nc5ccc(S(=O)(=O)N=C(N)N)cc5)cc34)cc2)n1"
observedvalue = "> 100 µM"

[[record]]
molecule = "COc1ccc(/C(C)=C(\\c2ccc(Cl)cc2)c2ccc(OCCN3CCCCCC3)cc2)cc1F"
observedvalue = "4.81 µM"

[[record]]
molecule = "CCCCCCCc1ccc(-c2nnc(N=Nc3ccc(OCCCCC)cc3)s2)s1"
observedvalue = "> 100 µM"

[[record]]
molecule = "CCCCCCCCCCCCC1N=C(N)NC2(CCCO2)C1C(=O)OC (stereo not given)"
observedvalue = "7.65 µM"

[[record]]
molecule = "Cc1ccc(C2=C(Cl)C(=O)C(c3ccc(C)cc3)=C(Cl)C2=O)cc1"
observedvalue = "> 100 µM"

[[record]]
molecule = "C[C@]12CCC3=NCCN3C1=CC[C@@H]1[C@@H]2CC[C@@]2(C)[C@H]1CC[C@]2(C)O"
observedvalue = "> 100 µM"


Hi there! I need TGI for each item below, if you can.
1. CSc1nc[nH]c1C(N)=S
2. Cc1nc(Cc2n[nH]c(C)n2)n[nH]1

Response given:
> 100 µM
> 100 µM

###

tested on: DU-145 prostate; experiment: NCI tumour cell line growth inhibition, 48 h
I'd appreciate it if you could supply TGI values for the items below.

Hi there! I need TGI for each item below, if you can.
1. N/C(=N\C(N)=N\c1nc2ccccc2s1)c1cnccn1
2. CCOC(=O)c1csc(NC(=O)C(C)N2CCOCC2)n1 (centres undefined)
3. COc1cc(/C=C2/Oc3c(OC)cccc3C2=O)ccc1O
4. Cc1ccc(-n2cc(-c3ccc(Cl)cc3)c3c(=N)n(N)cnc32)cc1

Response given:
> 100 µM
> 100 µM
> 100 µM
34.5 µM

###

I'd appreciate it if you could supply TGI values for the items below.
tested on: CAKI-1 renal; assay: NCI tumour cell line growth inhibition, 48 h

[[record]]
compound = "O=c1cccccc1[O-].O=c1cccccc1[O-].O=c1cccccc1[O-].[Sm+3]"
observedvalue = "> 100 µM"

[[record]]
compound = "O=C(CC1=Nc2nnc(-c3nnc4n3C(=O)C(CC(=O)C3CC3)=N4)n2C1=O)C1CC1"
observedvalue = "> 100 µM"

[[record]]
compound = "O=c1[nH]c2ccc([N+](=O)[O-])c(Cl)c2c2ccccc12"
observedvalue = "13.2 µM"


Hi there! I need TGI for each item below, if you can.
1. Clc1cc2ncn(C3CCCCO3)c2cc1Cl (configuration not stated)
2. CN(C)C(=O)Oc1ccc(C(=S)Nc2ccccc2)cc1
3. CCOc1ccccc1NC(=O)C1=C(C)NC(C)=C(C(=O)Nc2ccccc2OCC)C1c1ccc([N+](=O)[O-])cc1

Response given:
1. > 100 µM
2. > 100 µM
3. > 100 µM

Challenge: // TGI lookup, key: O=C1C=C/C(=C/[C@H]2SSC=C[C@]23C=CC(=O)C3)C1
Response given: 24.8 µM

###

system: UACC-257 melanoma; assay: NCI tumour cell line growth inhibition, 48 h
measurementType: GI50

[[record]]
compound = "COc1cc(/C=C2\\C(=O)N(C)c3ccccc32)cc(OC)c1OC"
observedvalue = "21.4 µM"

[[record]]
compound = "COc1c(O)c2c3c(c1OC)-c1ccccc1CC3N(S(=O)(=O)c1ccc(C)cc1)CC2 (configuration not stated)"
observedvalue = "1.8 µM"

[[record]]
compound = "OCC#Cc1ccccc1C#Cc1ccc(C#Cc2ccccc2)cc1"
observedvalue = "27.6 µM"


Hi there! I need GI50 for each item below, if you can.
1. C=CCN=C(N/N=C/c1ccc([N+](=O)[O-])o1)NS(=O)(=O)c1cc(C(=O)Nc2ccccc2)c(Cl)cc1SCC(N)=O
2. N#CC(NC(=O)CCl)=C(Cl)Cl
3. O=C(/C=C(\[O-])c1ccccc1)CCCCCCC(=O)/C=C(\[O-])c1ccccc1.O=C(/C=C(\[O-])c1ccccc1)CCCCCCC(=O)/C=C(\[O-])c1ccccc1.O=C(/C=C(\[O-])c1ccccc1)CCCCCCC(=O)/C=C(\[O-])c1ccccc1.[Nd+3].[Nd+3]
4. COc1cc(OC)cc(-c2ccc(-c3ccc(C(=N)N)cn3)s2)c1

Response given:
19.5 µM
1.55 µM
> 50 µM
2.29 µM

###

system: HS 578T breast; assay: NCI tumour cell line growth inhibition, 48 h
measurementType: TGI

// below: answered compounds
[[record]]
compound = "Cc1cc(=O)n2nc(CSc3nnc(Sc4cc(O)ccc4O)s3)sc2n1"
testedon = "HS 578T breast"
measurementtype = "TGI"
observedvalue = "> 100 µM"

[[record]]
compound = "COC(=O)c1ccccc1C1CN=NC12Cc1c(C)ccc(C)c1C2=O (centres undefined)"
testedon = "HS 578T breast"
measurementtype = "TGI"
observedvalue = "> 100 µM"


Hi there! I need TGI for each item below, if you can.
1. Clc1ccc2c(NCCCN3CCN(c4nc(N5CCOCC5)nc5ccccc45)CC3)ccnc2c1
2. CCC1CN2CCc3c([nH]c4ccccc34)[C@@](C(=O)OC)(c3cc4c(cc3OC)N(C)C3C(O)(C(=O)OC)C(C(=O)OC)C5(CC)C=CCN6CCC43C65)C[C@@H](C2)[C@@H]1C(C)(C)C (some centres undefined)
3. Nc1ncc(C2[C@H](CNC(=O)c3cc(Br)c[nH]3)C(CNC(=O)c3cc(Br)c[nH]3)[C@@H]2c2cnc(N)[nH]2)[nH]1 (some centres undefined)
4. C[C@]12CCC3=NCCN3C1=CC[C@@H]1[C@@H]2CC[C@@]2(C)[C@H]1CC[C@]2(C)O

Response given:
1: 3.72 µM; 2: > 6.86 µM; 3: > 50 µM; 4: 74.7 µM

Hi there! I need TGI for each item below, if you can.
1. N#CCC1(n2cc(-c3ncnc4[nH]ccc34)cn2)CN(C2CCN(C(=O)c3ccnc(C(F)(F)F)c3F)CC2)C1
2. COc1ccc2c(c1)CC[C@@H]1C2CC[C@]2(C)C(=C=CP(=O)(O)O)CCC12 (some centres undefined)
3. CCOC(=O)c1c(-c2ccccc2)c(C)cn1C

Response given:
["> 100 µM", "> 100 µM", "> 10 µM"]

Hi there! I need TGI for each item below, if you can.
1. O=C(O)C1(C(O)c2ccccc2)SCCCS1 (centres undefined)
2. C[n+]1c(-c2ccc(/C=N/NC(=O)C(=O)N/N=C/c3ccc(-c4cn5ccccc5[n+]4C)cc3)cc2)cn2ccccc21

Response given:
["> 10 µM", "> 100 µM"]

Hi there! I need TGI for each item below, if you can.
1. Oc1ccc(SCc2cc(O)ccc2O)cc1
2. CCCCCCCCCCCCOC1C(C(CC(=O)N2CCN(Cc3ccc4c(c3)OCO4)CC2)NS(=O)(=O)c2cc(Cl)cc(Cl)c2)OC2OC(C)(C)OC21 (centres undefined)
3. COc1ccc(/C=C/C(C)=N/OCC(=O)Nc2ccc(Cl)cc2)cc1
4. CC(CC=O)Nc1nn2c(=O)c3ccccc3nc2s1 (centres undefined)
5. CC1=C(CNO)C2=C(C)C3(CC3)[C@@](C)(O)C(=O)C2=C1

Response given:
97 µM
> 68.9 µM
78.5 µM
> 100 µM
9.18 µM

Hi there! I need TGI for each item below, if you can.
1. OCCCCC#Cc1ccccc1C#Cc1ccc(C(F)(F)F)cc1
2. COc1ccc(/C=N/Nc2nnc3c(n2)c2ccccc2c2nn(-c4ccccc4Cl)nc23)cc1
3. COc1c(O)c2c3c(c1OC)-c1ccccc1CC3N(S(=O)(=O)c1ccc(C)cc1)CC2 (centres undefined)

Response given:
65.9 µM
> 100 µM
4.03 µM

###

tested on: SK-MEL-2 melanoma; test: NCI tumour cell line growth inhibition, 48 h; in the data active = GI50 below about 0.43 µM; inactive = the rest
Give one outcome, nothing more. List: T = active, F = inactive

Would you please look over these solved cases?
[[record]]
compound = "Cc1cc(Nc2ccc(Cl)cc2)nc(NCCCNc2ccnc3cc(Cl)ccc23)n1"
testedon = "SK-MEL-2 melanoma"
discretelabel = "F"

[[record]]
compound = "CC1(C)CC[C@]2(C(=O)O)CC[C@]3(C)C(=CC[C@@H]4[C@@]5(C)C/C(=C/c6ccco6)C(=O)C(C)(C)[C@@H]5CC[C@]43C)[C@@H]2C1"
testedon = "SK-MEL-2 melanoma"
discretelabel = "F"


Challenge: // param item: [Cl-].[Gd+3].[O-]/N=C(\c1ccccc1)c1ccccn1.[O-]/N=C(\c1ccccc1)c1ccccn1.[O-]/N=C(\c1ccccc1)c1ccccn1 ; yields the recorded call
Response given: F

Challenge: Now consider COc1cccc(C2C(C#N)=C(N)Oc3cc4c(cc32)OCO4)c1 (stereo not drawn) and answer again.
Response given: T

Challenge: Now consider O=C1CCS/C(=N/S(=O)(=O)c2ccc(N3N=C4c5ccccc5CC4C3c3cccs3)cc2)N1Cc1ccccc1 (stereo not drawn) and answer again.
Response given: F

Challenge: Now consider CC(=O)[O-].[Mn+3].[O-]c1ccc(Cl)cc1C=NCCN=Cc1cc(Cl)ccc1[O-] and answer again.
Response given: F

Challenge: Now consider COC(=O)c1ccc2[nH]c(O)c(C(=Nc3ccc(N(C)C(=O)CN4CCN(C)CC4)cc3)c3ccccc3)c2c1 and answer again.
Response given: F

Challenge: Now consider COC(=O)[C@]1(C)CCC[C@]2(C)[C@@H]1CCC13C[C@@H](C=CO1)[C@@H](C)CC32O (stereo partly drawn) and answer again.
Response given: F
